experimental_system: T1, Human α-parvin-CHC (residues 242–372) (human, UniProt Q9NVD7 242-372)
T1 chain: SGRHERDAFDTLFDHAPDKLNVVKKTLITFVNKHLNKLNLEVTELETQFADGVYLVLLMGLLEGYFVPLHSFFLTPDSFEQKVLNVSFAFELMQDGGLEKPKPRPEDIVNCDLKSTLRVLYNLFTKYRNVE
test_summary: MST
Where no end group is shown, it is not given here.
Entries and their pKd values follow.
In plain terms, pKd is the concentration in mol/L turned into minus its base-10 logarithm.

See these solved cases before continuing.
binder	quantity_kind	numeric_readout
DAALDDLIDTLGGP (also: N-terminal FITC-Ahx only in labelled form) [CAST LD motif peptide]	pKd	3.56
SELDNLEEILDDLQNSQ (also: N-terminal FITC-Ahx only in labelled form) [NCOA2 (nuclear receptor coactivator 2) LD motif peptide]	pKd	3.60

Dear colleague, I am looking for the recorded pKd of the following binder: SDWEVDDLLCSLLSPPA (also: N-terminal FITC-Ahx only in labelled form) [CREB3 LD motif peptide]
3.96
